molecular target: CYP3A4 (Homo sapiens); construct: The full-length protein was used for assays and the truncated form was used for crystallization; made in house; assay: Inhibitory potency for the BFC O-debenzylase activity in a soluble reconstituted system; type: biochemical; conditions: human, probe BFC (O-debenzylation); BFC debenzylase activity, soluble reconstituted system with cytochrome P450 reductase
Sequence (P08684 2-503): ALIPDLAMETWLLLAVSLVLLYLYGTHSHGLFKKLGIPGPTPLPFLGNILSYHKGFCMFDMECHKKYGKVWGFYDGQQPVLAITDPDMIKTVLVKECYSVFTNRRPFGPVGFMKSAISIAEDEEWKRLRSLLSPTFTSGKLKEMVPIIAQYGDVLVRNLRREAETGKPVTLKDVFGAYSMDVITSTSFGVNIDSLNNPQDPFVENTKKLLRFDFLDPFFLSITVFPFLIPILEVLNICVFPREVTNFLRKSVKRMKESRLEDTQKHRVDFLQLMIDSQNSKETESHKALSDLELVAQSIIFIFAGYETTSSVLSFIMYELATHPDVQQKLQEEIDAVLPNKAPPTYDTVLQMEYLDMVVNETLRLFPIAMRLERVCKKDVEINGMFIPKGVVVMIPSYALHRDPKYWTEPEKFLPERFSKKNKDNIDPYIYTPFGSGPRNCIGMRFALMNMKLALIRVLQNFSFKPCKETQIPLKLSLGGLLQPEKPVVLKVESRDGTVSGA
readout-type: IC50 (nM)

INSERT INTO assay_data (compound, readout_type, recorded_result) VALUES
  ('O=C(CNC(=O)c1cccnc1)N[C@H](CS[C@H](Cc1ccccc1)C(=O)NCCCc1cccnc1)Cc1ccccc1 [Compound 10b]', 'IC50', 210);

----------
molecular target: CYP3A4 (Homo sapiens, UniProt P08684); construct: The full-length protein was used for assays and the truncated form was used for crystallization; made in house; assay: Thermal denaturation (ligand-dependent change in melting temperature); format: binding; conditions: purified CYP3A4 protein solution, pH 7.4, ligand-dependent change in melting temperature of CYP3A4, 1 μM protein, 20 μM ligand
Sequence (P08684 whole entry, the tested form may be a part): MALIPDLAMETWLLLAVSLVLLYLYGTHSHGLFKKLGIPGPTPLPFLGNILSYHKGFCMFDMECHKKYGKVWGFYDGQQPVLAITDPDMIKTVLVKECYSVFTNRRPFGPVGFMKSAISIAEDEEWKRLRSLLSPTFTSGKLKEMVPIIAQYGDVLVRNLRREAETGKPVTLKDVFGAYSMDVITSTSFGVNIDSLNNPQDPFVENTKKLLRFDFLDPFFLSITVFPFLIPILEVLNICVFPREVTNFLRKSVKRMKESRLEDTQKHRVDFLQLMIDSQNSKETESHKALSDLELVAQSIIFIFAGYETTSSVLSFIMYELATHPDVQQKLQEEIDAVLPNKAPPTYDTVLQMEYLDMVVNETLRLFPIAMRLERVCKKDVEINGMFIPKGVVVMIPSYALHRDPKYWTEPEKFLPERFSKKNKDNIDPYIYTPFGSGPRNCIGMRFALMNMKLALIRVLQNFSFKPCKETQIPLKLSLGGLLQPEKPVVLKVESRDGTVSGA
readout-type: ΔTm at 15 min, 20 μM

INSERT INTO results (molecule, readout_type, recorded_result) VALUES
  ('O=C(CNC(=O)c1cccnc1)N[C@H](CS[C@H](Cc1ccccc1)C(=O)NCCCc1cccnc1)Cc1ccccc1 [Compound 10b]', 'ΔTm at 15 min, 20 μM', '7.3 °C'),
  ('CC(C)(C)OC(=O)N[C@H](CS[C@H](Cc1ccccc1)C(=O)NCCc1ccncc1)Cc1ccccc1', 'ΔTm at 15 min, 20 μM', '5 °C'),
  ('CC(C)(C)OC(=O)N[C@H](CS[C@H](Cc1ccccc1)C(=O)NCc1ccncc1)Cc1ccccc1', 'ΔTm at 15 min, 20 μM', '5.2 °C'),
  ('O=C(N[C@H](CS[C@H](Cc1ccccc1)C(=O)NCCCc1cccnc1)Cc1ccccc1)c1cccnc1 [Compound 10a]', 'ΔTm at 15 min, 20 μM', '7.2 °C'),
  ('O=C(Cc1cccnc1)N[C@H](CS[C@H](Cc1ccccc1)C(=O)NCc1cccnc1)Cc1ccccc1', 'ΔTm at 15 min, 20 μM', '3.6 °C'),
  ('CC(C)(C)OC(=O)N[C@H](CS[C@H](Cc1ccccc1)C(=O)NCC(=O)Nc1cccnc1)Cc1ccccc1', 'ΔTm at 15 min, 20 μM', '1.9 °C'),
  ('O=C(CCc1cccnc1)N[C@H](CS[C@H](Cc1ccccc1)C(=O)NCCc1cccnc1)Cc1ccccc1', 'ΔTm at 15 min, 20 μM', '4.2 °C');

----------
In this section we review reported Heme Destroyed values for a set of compounds.
molecular target: CYP3A4 (Homo sapiens, UniProt P08684); construct: The full-length protein was used for assays and the truncated form was used for crystallization; made in house; assay: H2O2-dependent heme depletion (heme bleaching) assay; conditions: 10 mM H2O2, 2 h, relative to ligand-free CYP3A4 = 100%
readout-type: Heme Destroyed (%)

INSERT INTO results (compound, readout_type, recorded_result) VALUES
  ('O=C(CCc1cccnc1)N[C@H](CS[C@H](Cc1ccccc1)C(=O)NCCc1cccnc1)Cc1ccccc1', 'Heme Destroyed', 32),
  ('O=C(N[C@H](CS[C@H](Cc1ccccc1)C(=O)NCCCc1cccnc1)Cc1ccccc1)c1cccnc1 [Compound 10a]', 'Heme Destroyed', 13),
  ('O=C(Cc1cccnc1)N[C@H](CS[C@H](Cc1ccccc1)C(=O)NCc1cccnc1)Cc1ccccc1', 'Heme Destroyed', 39),
  ('CC(C)(C)OC(=O)N[C@H](CS[C@H](Cc1ccccc1)C(=O)NCC(=O)Nc1cccnc1)Cc1ccccc1', 'Heme Destroyed', 44);

----------
The following compounds are listed with their measured IC50 values.
biological target: recombinant CYP3A5 (Homo sapiens); assay: Inhibitory potency against recombinant CYP3A5; conditions: read-out: IC50 estimates
Sequence (P20815 whole entry): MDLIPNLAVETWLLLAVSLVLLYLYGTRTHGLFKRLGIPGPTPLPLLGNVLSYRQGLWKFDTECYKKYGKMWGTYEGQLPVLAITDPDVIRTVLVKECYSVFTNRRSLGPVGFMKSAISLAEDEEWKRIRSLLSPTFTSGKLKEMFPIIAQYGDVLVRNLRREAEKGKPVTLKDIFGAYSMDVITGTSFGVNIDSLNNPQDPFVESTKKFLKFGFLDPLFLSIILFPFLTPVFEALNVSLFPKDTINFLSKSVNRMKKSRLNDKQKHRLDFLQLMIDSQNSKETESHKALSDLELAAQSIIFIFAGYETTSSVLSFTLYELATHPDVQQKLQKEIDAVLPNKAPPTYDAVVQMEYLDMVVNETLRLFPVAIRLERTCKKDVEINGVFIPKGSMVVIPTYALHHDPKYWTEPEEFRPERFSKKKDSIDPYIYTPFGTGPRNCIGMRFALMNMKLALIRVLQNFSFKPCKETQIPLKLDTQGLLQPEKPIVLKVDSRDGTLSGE
readout-type: IC50

INSERT INTO measurements (compound, tested_on, readout_type, recorded_result) VALUES
  ('O=C(CCc1cccnc1)N[C@H](CS[C@@H](Cc1ccccc1)C(=O)NCCc1cccnc1)Cc1ccccc1', 'recombinant CYP3A5 (Homo sapiens)', 'IC50', '180 to 200 nM'),
  ('CC(C)(C)OC(=O)N[C@H](CS[C@H](Cc1ccccc1)C(=O)NCCc1ccncc1)Cc1ccccc1', 'recombinant CYP3A5 (Homo sapiens)', 'IC50', '180 to 200 nM'),
  ('O=C(N[C@H](CS[C@H](Cc1ccccc1)C(=O)NCCCc1cccnc1)Cc1ccccc1)c1cccnc1 [Compound 10a]', 'recombinant CYP3A5 (Homo sapiens)', 'IC50', '180 to 200 nM');

----------
Measured pIC50 values are reported for all entries that follow.
molecular target: CYP3A4 (Homo sapiens, UniProt P08684); construct: The full-length protein was used for assays and the truncated form was used for crystallization; made in house; assay: Inhibitory potency for the BFC O-debenzylase activity in a soluble reconstituted system; type: biochemical; settings: BFC debenzylase activity, soluble reconstituted system with cytochrome P450 reductase
pIC50: −log10 of the molar value.
readout-type: pIC50

INSERT INTO results (molecule, readout_type, recorded_result) VALUES
  ('O=C(CCc1cccnc1)N[C@H](CS[C@@H](Cc1ccccc1)C(=O)NCCc1cccnc1)Cc1ccccc1', 'pIC50', 6.68),
  ('CC(C)(C)OC(=O)N[C@H](CS[C@H](Cc1ccccc1)C(=O)NCc1ccncc1)Cc1ccccc1', 'pIC50', 6.51),
  ('O=C(Cc1cccnc1)N[C@H](CS[C@H](Cc1ccccc1)C(=O)NCc1cccnc1)Cc1ccccc1', 'pIC50', 6.22),
  ('CC(C)(C)OC(=O)N[C@H](CS[C@H](Cc1ccccc1)C(=O)NCCc1ccncc1)Cc1ccccc1', 'pIC50', 6.80),
  ('O=C(CCc1cccnc1)N[C@H](CS[C@H](Cc1ccccc1)C(=O)NCCc1cccnc1)Cc1ccccc1', 'pIC50', 6.09),
  ('CC(C)(C)OC(=O)N[C@H](CS[C@H](Cc1ccccc1)C(=O)NCC(=O)Nc1cccnc1)Cc1ccccc1', 'pIC50', 5.80),
  ('O=C(N[C@H](CS[C@H](Cc1ccccc1)C(=O)NCCCc1cccnc1)Cc1ccccc1)c1cccnc1 [Compound 10a]', 'pIC50', 6.82);

----------
λmax Ferric listing for selected compounds.
target: CYP3A4 (Homo sapiens, UniProt P08684); construct: The full-length protein was used for assays and the truncated form was used for crystallization; made in house; assay: Spectral binding titrations (equilibrium ligand binding, type II spectral change); settings: ferric ligand-bound CYP3A4
readout-type: λmax Ferric (nm)

INSERT INTO results (compound, recorded_result) VALUES
  ('O=C(CCc1cccnc1)N[C@H](CS[C@H](Cc1ccccc1)C(=O)NCCc1cccnc1)Cc1ccccc1', 421),
  ('O=C(N[C@H](CS[C@H](Cc1ccccc1)C(=O)NCCCc1cccnc1)Cc1ccccc1)c1cccnc1 [Compound 10a]', 422),
  ('O=C(Cc1cccnc1)N[C@H](CS[C@H](Cc1ccccc1)C(=O)NCc1cccnc1)Cc1ccccc1', 421),
  ('CC(C)(C)OC(=O)N[C@H](CS[C@H](Cc1ccccc1)C(=O)NCC(=O)Nc1cccnc1)Cc1ccccc1', 421),
  ('CC(C)(C)OC(=O)N[C@H](CS[C@H](Cc1ccccc1)C(=O)NCc1ccncc1)Cc1ccccc1', 422),
  ('CC(C)(C)OC(=O)N[C@H](CS[C@H](Cc1ccccc1)C(=O)NCCc1ccncc1)Cc1ccccc1', 423),
  ('O=C(CNC(=O)c1cccnc1)N[C@H](CS[C@H](Cc1ccccc1)C(=O)NCCCc1cccnc1)Cc1ccccc1 [Compound 10b]', 422);

----------
molecular target: CYP3A4 (Homo sapiens, UniProt P08684); construct: The full-length protein was used for assays and the truncated form was used for crystallization; made in house; experiment: Stopped-flow kinetics of ligand binding; details: ligand-binding reaction
Classification field: enter y for Percentage of the absorbance change taking place during the fast kinetic phase values not below 30%, n for values below it.

INSERT INTO results (compound, tested_on, class_assignment) VALUES
  ('CC(C)(C)OC(=O)N[C@H](CS[C@H](Cc1ccccc1)C(=O)NCc1cccnc1)Cc1ccccc1 [Compound 4b, reference compound]', 'CYP3A4 (Homo sapiens, UniProt P08684)', 'y'),
  ('CC(C)(C)OC(=O)N[C@H](CS[C@H](Cc1ccccc1)C(=O)NCCc1cccnc1)Cc1ccccc1 [Compound 4f, reference compound]', 'CYP3A4 (Homo sapiens, UniProt P08684)', 'y'),
  ('O=C(Cc1cccnc1)N[C@H](CS[C@H](Cc1ccccc1)C(=O)NCc1cccnc1)Cc1ccccc1 [Compound 8a]', 'CYP3A4 (Homo sapiens, UniProt P08684)', 'n'),
  ('CC(C)(C)OC(=O)N[C@H](CS[C@H](Cc1ccccc1)C(=O)NCC(=O)Nc1cccnc1)Cc1ccccc1 [Compound 4]', 'CYP3A4 (Homo sapiens, UniProt P08684)', 'n'),
  ('CC(C)(C)OC(=O)N[C@H](CS[C@H](Cc1ccccc1)C(=O)NCCCc1cccnc1)Cc1ccccc1 [Compound 3a, reference compound]', 'CYP3A4 (Homo sapiens, UniProt P08684)', 'y'),
  ('O=C(CCc1cccnc1)N[C@H](CS[C@H](Cc1ccccc1)C(=O)NCCc1cccnc1)Cc1ccccc1 [Compound 8b]', 'CYP3A4 (Homo sapiens, UniProt P08684)', 'n'),
  ('O=C(CNC(=O)c1cccnc1)N[C@H](CS[C@H](Cc1ccccc1)C(=O)NCCCc1cccnc1)Cc1ccccc1 [Compound 10b]', 'CYP3A4 (Homo sapiens, UniProt P08684)', 'n'),
  ('CC(C)(C)OC(=O)N[C@H](CS[C@H](Cc1ccccc1)C(=O)NCc1ccncc1)Cc1ccccc1 [Compound 5a]', 'CYP3A4 (Homo sapiens, UniProt P08684)', 'y'),
  ('CC(C)(C)OC(=O)N[C@H](CS[C@@H](Cc1ccccc1)C(=O)NCCc1cccnc1)Cc1ccccc1 [Compound 4h, reference compound]', 'CYP3A4 (Homo sapiens, UniProt P08684)', 'n'),
  ('CC(C)(C)OC(=O)N[C@H](CS[C@H](Cc1ccccc1)C(=O)NCCc1ccncc1)Cc1ccccc1 [Compound 5b]', 'CYP3A4 (Homo sapiens, UniProt P08684)', 'y');
